Target: Endonuclease 8-like 1 (Homo sapiens) (UniProt Q96FI4);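 further: fluorescence at 594 nm from quenched duplex DNA oligonucleotides released by NEIL1 cleavage and strand separation, reported as reduction of this enzyme activity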
Sequence (Q96FI4 whole entry): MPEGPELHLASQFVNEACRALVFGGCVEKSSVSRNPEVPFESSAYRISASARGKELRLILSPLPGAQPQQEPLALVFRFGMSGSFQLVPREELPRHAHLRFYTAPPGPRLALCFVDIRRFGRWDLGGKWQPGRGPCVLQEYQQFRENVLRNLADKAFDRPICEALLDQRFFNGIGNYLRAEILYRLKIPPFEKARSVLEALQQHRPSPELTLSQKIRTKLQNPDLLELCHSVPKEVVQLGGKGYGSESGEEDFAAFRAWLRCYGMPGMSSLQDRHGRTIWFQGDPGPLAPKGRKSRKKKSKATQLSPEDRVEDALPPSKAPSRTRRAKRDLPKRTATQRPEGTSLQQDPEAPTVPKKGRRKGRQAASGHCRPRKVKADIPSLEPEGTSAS
Conditions: Compound Concentration 10.0 uM, Hit No
Description: Inhibition of NEIL1 by quantifying inhibition of NEIL1-mediated cleavage and dissociation of quenched duplex DNA oligonucleotides, measured as fluorescence at 594 nm.
Here the recorded inhibition is given for each entry.
Give the quantity in %, number only.

| compound | unit label | inhibition |
| --- | --- | --- |
| CC[C@H]1OC(=O)[C@H](C)[C@@H](O[C@H]2C[C@@](C)(OC)[C@@H](O)[C@H](C)O2)[C@H](C)[C@@H](O[C@@H]2O[C@H](C)C[C@H](N(C)C)[C@H]2O)[C@@]2(C)CC(C)=C(O2)[C@H](C)[C@@H](O)[C@]1(C)O | % | 3.06 |
| Cc1ccc2c(c1CCC(=O)O)CC[C@@H](NS(=O)(=O)c1ccc(Cl)cc1)C2 | % | 5.13 |

Requested field: inhibition. Item: "CCC(=O)NC[C@@H]1C[C@H]1c1cccc2c1CCO2" 4.24

Requested field: inhibition. Item: CN1C2CCC1CC(OC(c1ccc(F)cc1)c1ccc(F)cc1)C2 (centres undefined) 1.28
